Tested on: Tov-21-G
experimental.details: Confirmatory qHTS for gynecologic anti-cancer compounds from libraries of approved drugs and bioactive compounds; note: nearly all actives have a fitted effect of over 55% in size; note: potency is the fitted concentration of half-maximal effect
condition.label: gynecologic cancer cell panel viability, ATPlite luminescence, 48 h; series mostly up to 57.7 µM
Inconclusive results are not listed. Active and inactive are the calls of the source. Calls come from the whole dose curve; as a rule, active = well fitted cell-killing curve with a large enough effect; inconclusive = small, poorly fitted or top-dose-only effect, or effect the other way; inactive = no such curve, though single readings can be large or run the other way.
parameter.measured: Potency

Please review the entries below; each comes with its answer.
Prompt line: Recorded Potency for `Cc1ccc(C(N)=O)cc1Nc1nccc(-c2cn(C(C)C)c3cnccc23)n1` , please?
Response line: 9.68 µM (active)

Prompt line: # get_value(readout='Potency', item= `CC1=C(CO)C(=O)O[C@@H]([C@@H](C)[C@H]2CC[C@H]3[C@@H]4C[C@H]5O[C@]56[C@@H](O)C=CC(=O)[C@]6(C)[C@H]4CC[C@]23C)C1` )
Response line: 3.35 µM (active)

Prompt line: Given the compound `Cc1csc(NC(=O)c2sc3nc4c(c(C(F)(F)F)c3c2N)CCC4)n1` , what is its reported Potency?
Response line: 1.93 µM (active)

The record that follows has no Potency shown yet.
Prompt line: What value of Potency has been reported for the following compound? `CCn1cc(-c2ccnc3[nH]c(-c4cccc(CN(C)C)c4)cc23)c(-c2ccc(NC(=O)N(C)C)cc2)n1`
Response line: 7.49 µM (active)

====

Tested on: Tov-21-G
experimental.details: Confirmatory qHTS for gynecologic anti-cancer compounds from libraries of approved drugs and bioactive compounds; note: nearly all actives have a fitted effect of over 55% in size; note: potency is the fitted concentration of half-maximal effect
condition.label: gynecologic cancer cell panel viability, ATPlite luminescence, 48 h; series mostly up to 57.7 µM
Results filed as inconclusive are left out. Active and inactive are the calls of the source. The call rests on the fitted dose curve; in most records, active means well fitted cell-killing curve with a large enough effect; inconclusive means small, poorly fitted or top-dose-only effect, or effect the other way; inactive means no such curve, though single readings can be large or run the other way.
Below: a set of entries, each annotated with reported Potency.

Examples from the recorded data:
Prompt line: Form field: reported Potency of `CCc1nc(C(N)=O)c(Nc2ccc(N3CCC(N4CCN(C)CC4)CC3)c(OC)c2)nc1NC1CCOCC1`
Response line: 2.67 µM (active)

Prompt line: Return reported Potency; argument: NC(=O)Nc1cc(-c2cccc(F)c2)sc1C(=O)NC1CCCNC1 (stereo not given)
Response line: 3.43 µM (active)

Prompt line: Value lookup for Potency; key = CCN(CC)CCCC(C)Nc1c2ccc(Cl)cc2nc2ccc(OC)cc12 (stereo not given)
Response line: 30.6 µM (active)

Prompt line: If you can, please state the reported Potency value of CC(Oc1cc(-n2cnc3ccc(CN4CCN(C)CC4)cc32)sc1C(N)=O)c1ccccc1C(F)(F)F (stereo not given) .
Response line: 27.3 µM (active)

Prompt line: Potency for CCn1c(-c2nonc2N)nc2c(C#CC(C)(C)O)ncc(OCC3CCCNC3)c21 (stereo not given) ?
Response line: 0.0306 µM (active)

Prompt line: Suppose we examine the compound `CCN(CC)CCOc1ccc(/C(=C(\Cl)c2ccccc2)c2ccccc2)cc1` ; what Potency value has been reported?
Response line: 126 µM (active)

Prompt line: Look up Potency for this compound: `Nc1ccccc1NC(=O)c1ccc(CNC(=O)OCc2cccnc2)cc1`
Response line: 7.69 µM (active)

Prompt line: Recorded Potency of `CCc1c2c(nc3ccc(O)cc13)-c1cc3c(c(=O)n1C2)COC(=O)[C@]3(O)CC` , please.
Response line: 1.09 µM (active)

Prompt line: Query (compound): `CNC(=O)CN1CCC(Oc2cc3c(Nc4cccc(Cl)c4F)ncnc3cc2OC)CC1` ; field requested: Potency
Response line: 7.69 µM (active)

Then there is this compound:
Prompt line: Recorded Potency of `CC(C)c1nn(-c2c(Cl)cccc2Cl)c2nc(Cc3ccc(OCCO)cc3)[nH]c(=O)c12` , please.
Response line: 0.0863 µM (active)

====

Test system: Tov-21-G
experimental.details: Confirmatory qHTS for gynecologic anti-cancer compounds from libraries of approved drugs and bioactive compounds; note: nearly all actives have a fitted effect of over 55% in size
condition.label: gynecologic cancer cell panel viability, ATPlite luminescence, 48 h; series mostly up to 57.7 µM
Records with an inconclusive call do not appear. Active and inactive are the calls of the source. Calls follow the shape of the dose curve; as a rule, active = well fitted cell-killing curve with a large enough effect; inconclusive = small, poorly fitted or top-dose-only effect, or effect the other way; inactive = no such curve, though single readings can be large or run the other way.
Classes to choose from: active, inactive

Example entries and their recorded answers appear below.
Prompt line: Field: outcome | Entry: `CC(C)n1c(/C=C/[C@@H](O)C[C@@H](O)CC(=O)O)c(-c2ccc(F)cc2)c2ccccc21`
Response line: inactive

Prompt line: Each compound tested received a call. Report the one for `Cc1cc(CN2CCN(c3c(Br)cnc4nc(-c5ccc(N6CCN(C)CC6)cc5)[nH]c34)CC2)no1` .
Response line: active

Prompt line: What classification did `O=C(CCCCCCC(=O)Nc1ccccc1)NO` end up with in this test?
Response line: active

Others:
Prompt line: What was the test verdict on CC(=O)c1cnc2ccc(-c3cc(Cl)c(O)c(Cl)c3)nc2c1NC1CCC(CN(C)C)CC1 (stereo not drawn) ?
Response line: active

Prompt line: Record request — test call for `CNc1nc(Nc2ccc(C(=O)N3CCOCC3)cc2OC)ncc1Cl`
Response line: inactive

Prompt line: # lookup: test call for `Nc1ncn([C@@H]2O[C@H](CO)[C@@H](O)[C@H]2O)c(=O)n1`
Response line: active

====

System: Tov-21-G
experimental.details: Confirmatory qHTS for gynecologic anti-cancer compounds from libraries of approved drugs and bioactive compounds; note: nearly all actives have a fitted effect of over 55% in size
condition.label: gynecologic cancer cell panel viability, ATPlite luminescence, 48 h; series mostly up to 57.7 µM
Inconclusive results are not listed. Active and inactive are the calls of the source. Calls follow the shape of the dose curve; as a rule, active = well fitted cell-killing curve with a large enough effect; inconclusive = small, poorly fitted or top-dose-only effect, or effect the other way; inactive = no such curve, though single readings can be large or run the other way.
Select the matching outcome among active, inactive

Sample answers from the record:
Prompt line: Entry `CCOc1cc2ncc(C#N)c(Nc3ccc(F)c(Cl)c3)c2cc1NC(=O)/C=C/CN(C)C` : call = ?
Response line: active

Prompt line: Which outcome was entered for the compound COc1ccc(-c2ccc3c(N4CCOCC4C)nc(N4CCOCC4C)nc3n2)cc1CO (configuration not stated) in this test?
Response line: inactive

Prompt line: # fetch the recorded call for CCC1=CC2CN(C1)Cc1c([nH]c3ccccc13)[C@@](C(=O)OC)(c1cc3c(cc1OC)N(C)[C@H]1[C@@](O)(C(=O)OC)[C@H](OC(C)=O)[C@]4(CC)C=CCN5CC[C@]31[C@@H]54)C2 (some centres not stated) here
Response line: active

Prompt line: Hi team, can someone confirm the assay call for `NS(=O)(=O)OC[C@@H]1C[C@@H](n2ccc3c(N[C@H]4CCc5ccccc54)ncnc32)C[C@@H]1O` ?
Response line: active

---
Prompt line: Any idea what this test logged for CN(C)CCC(CSc1ccccc1)Nc1ccc(S(=O)(=O)NC(=O)c2ccc(N3CCN(Cc4ccccc4-c4ccc(Cl)cc4)CC3)cc2)cc1[N+](=O)[O-] (configuration not stated) ?
Response line: active

====

Tested on: Tov-21-G
experimental.details: Confirmatory qHTS for gynecologic anti-cancer compounds from libraries of approved drugs and bioactive compounds; note: nearly all actives have a fitted effect of over 55% in size
condition.label: gynecologic cancer cell panel viability, ATPlite luminescence, 48 h; series mostly up to 57.7 µM
Records with an inconclusive call do not appear. Active and inactive are the calls of the source. The call rests on the fitted dose curve; in most records, active means well fitted cell-killing curve with a large enough effect; inconclusive means small, poorly fitted or top-dose-only effect, or effect the other way; inactive means no such curve, though single readings can be large or run the other way.
The reply should be one of these categories: true (1) (active), false (0) (inactive)

Some solved cases for reference:
Prompt line: Kindly provide the recorded test outcome for the following molecule: `CCN1CCN(Cc2ccc(Nc3ncc(F)c(-c4cc(F)c5nc(C)n(C(C)C)c5c4)n3)nc2)CC1`
Response line: true (1)

Prompt line: Hi, sorry to bother you, what did the test record for `NC1(c2ccc(-c3nc4ccn5c(=O)[nH]nc5c4cc3-c3ccccc3)cc2)CCC1` ?
Response line: false (0)

Prompt line: I'd appreciate the recorded outcome for `COc1cc2c(Nc3ccc(NC(=O)c4ccccc4)cc3)ncnc2cc1OCCCN1CCOCC1` from this test.
Response line: true (1)

Prompt line: Could you kindly confirm the outcome this assay logged for Cc1c(NC(=O)OCC2COCCN2)cn2ncnc(Nc3ccc4c(cnn4Cc4cccc(F)c4)c3)c12 (centres undefined) ?
Response line: true (1)

Prompt line: What classification did `CN(C)/N=N/c1nc[nH]c1C(N)=O` end up with in this test?
Response line: false (0)

Prompt line: Assay outcome for `Fc1cc(-c2cccc3ncc(-c4cnn(C5CCNCC5)c4)nc23)cc(F)c1CN1CCOCC1` : what was it?
Response line: true (1)

Prompt line: So what was the verdict on CNC1CCC(N(Cc2cccc(-c3ccncc3)c2)C(=O)c2sc3ccccc3c2Cl)CC1 (centres undefined) in this test?
Response line: true (1)

Prompt line: What did the test return for `OC[C@H]1O[C@@H](n2cnc3c(=S)nc[nH]c32)[C@H](O)[C@@H]1O` ?
Response line: false (0)

Prompt line: I would be grateful if you could indicate the recorded call for `Cc1cc(Nc2cc(N3CCN(C)CC3)nc(/C=C/c3ccccc3)n2)n[nH]1` .
Response line: true (1)

Prompt line: # lookup: test call for `C#C[C@]1(O)CC[C@H]2[C@@H]3CCC4=CC(=O)CC[C@@H]4[C@H]3CC[C@@]21CC`
Response line: false (0)

---
Prompt line: // param item: `COc1cc2c(Oc3ccc(-c4cnc(Nc5ccc(F)cc5)n(C)c4=O)cc3F)ccnc2cc1OCCCN1CCOCC1` ; yields the recorded call
Response line: true (1)

Prompt line: Which result was noted for this molecule in the test: `CC(C)C[C@H](NC(=O)[C@H](Cc1ccccc1)NC(=O)c1cnccn1)B(O)O`
Response line: true (1)

Prompt line: Fill in: this test's call for `COc1cc2nccc(Oc3ccc(NC(=O)Nc4cc(C)on4)c(Cl)c3)c2cc1OC` is ___
Response line: true (1)

Prompt line: Call for entry `Cc1cc(C2CCCCC2)n(O)c(=O)c1` :
Response line: true (1)

Prompt line: Could you check what this test reported for `Nc1ccc(-c2ccc3ncc4ccc(=O)n(-c5cccc(C(F)(F)F)c5)c4c3c2)cn1` ?
Response line: true (1)

Prompt line: Answer briefly: the call reported for `Cc1cc(SCc2sc(-c3ccc(C(F)(F)F)cc3)nc2C)ccc1OCC(=O)O` in this assay.
Response line: false (0)

Prompt line: // outcome(item) with item = Cc1nc(Nc2n[nH]c3c2CN(C(=O)NC(CN(C)C)c2ccccc2)C3(C)C)c2sccc2n1 (centres undefined)
Response line: true (1)

Prompt line: // outcome(item) with item = `COc1cc(N2CCC(N(C)C)CC2)ccc1Nc1ncc(Cl)c(Nc2ccccc2P(C)(C)=O)n1`
Response line: true (1)

Prompt line: Any idea what this test logged for `CC[C@@]1(O)C(=O)OCc2c1cc1n(c2=O)Cc2c-1nc1ccccc1c2/C=N/OC(C)(C)C` ?
Response line: true (1)
